tested-on: PRMT6 (Homo sapiens, UniProt Q96LA8)
Sequence (Q96LA8 2-375): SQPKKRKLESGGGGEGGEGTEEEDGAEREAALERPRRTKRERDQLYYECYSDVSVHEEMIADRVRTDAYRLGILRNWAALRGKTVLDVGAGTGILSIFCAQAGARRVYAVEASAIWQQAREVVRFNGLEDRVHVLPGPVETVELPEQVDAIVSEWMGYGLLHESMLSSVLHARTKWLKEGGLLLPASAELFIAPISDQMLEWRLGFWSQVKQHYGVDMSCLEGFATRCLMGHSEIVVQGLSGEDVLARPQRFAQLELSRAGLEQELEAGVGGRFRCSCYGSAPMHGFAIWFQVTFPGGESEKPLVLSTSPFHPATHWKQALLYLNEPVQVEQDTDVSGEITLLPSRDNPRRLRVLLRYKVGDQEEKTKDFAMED
endpoint-name: pIC50
Quick note: pIC50 means taking -log10 of the concentration in moles per liter.

> print(dat)
                                   compound  recorded.result
1  COC(=O)c1cc(O)c2cc(NC(=O)NCCCNC(=N)NC[C@H]3O[C@@H](n4cnc5c(N)ncnc54)[C@H](O)[C@@H]3O)cc(C(F)(F)F)c2c1 [1j]             4.30

Then there is this compound:
Problem: What pIC50 appears in the records for this compound with PRMT6 (Homo sapiens, UniProt Q96LA8)? COC(=O)c1cc(O)c2cc(NC(=O)NCCNC(=N)NC[C@H]3O[C@@H](n4cnc5c(N)ncnc54)[C@H](O)[C@@H]3O)ccc2c1 [1i]
Solution: 4.15

###

selectivity index for PRMT7 over PRMT1 listing for selected molecules.
tested-on: PRMT1 (Homo sapiens)
Construct: PRMT1 (residues 2–371, C-terminus); with an N-terminal GST-tag; GST (N); purchased Reaction Biology Corporation
Sequence (Q99873 2-371): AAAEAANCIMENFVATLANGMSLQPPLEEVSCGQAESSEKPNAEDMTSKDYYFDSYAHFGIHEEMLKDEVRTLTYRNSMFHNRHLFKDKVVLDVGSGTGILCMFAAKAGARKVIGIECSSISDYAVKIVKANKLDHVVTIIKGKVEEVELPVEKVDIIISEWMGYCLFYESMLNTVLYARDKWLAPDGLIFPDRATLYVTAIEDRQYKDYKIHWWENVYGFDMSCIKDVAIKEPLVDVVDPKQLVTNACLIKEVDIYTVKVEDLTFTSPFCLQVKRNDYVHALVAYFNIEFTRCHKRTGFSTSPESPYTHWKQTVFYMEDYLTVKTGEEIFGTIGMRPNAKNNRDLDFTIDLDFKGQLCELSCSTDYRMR
measurement-notes: HotSpot radioisotope-based filter assay, PRMT1
Assay type: biochemical
test-context: Figure 2; from IC50 values of ref 31
# output: bare number, implied unit fold

> print(dat)
                            smiles.notation                           endpoint.name  unit.spec  recorded.result
1  COC(=O)c1cc(O)c2cc(NC(=O)NCCCCCNC(=N)NC[C@H]3O[C@@H](n4cnc5c(N)ncnc54)[C@H](O)[C@@H]3O)ccc2c1  selectivity index for PRMT7 over PRMT1       fold               38
2  COC(=O)c1cc(O)c2cc(NC(=O)NCCCCNC(=N)NCC[C@H]3O[C@@H](n4cnc5c(N)ncnc54)[C@H](O)[C@@H]3O)ccc2c1  selectivity index for PRMT7 over PRMT1       fold               22
3  COC(=O)c1cc(O)c2cc(NC(=O)NCCCCNC(=N)NCCC[C@H]3O[C@@H](n4cnc5c(N)ncnc54)[C@H](O)[C@@H]3O)ccc2c1  selectivity index for PRMT7 over PRMT1       fold             0.38

We now examine a further molecule.
Problem: Item COC(=O)c1cc(O)c2cc(NC(=O)NCCCCCCCNC(=N)NC[C@H]3O[C@@H](n4cnc5c(N)ncnc54)[C@H](O)[C@@H]3O)ccc2c1 with PRMT1 (Homo sapiens) - selectivity index for PRMT7 over PRMT1?
Solution: 4

###

Entries annotated with measured selectivity index for PRMT7 over PRMT4
tested-on: PRMT4 (Homo sapiens, UniProt Q86X55)
Construct: PRMT4 (residues 2–608, C-terminus); with an N-terminal GST-tag; GST (N); purchased Reaction Biology Corporation
Sequence (Q86X55 2-608): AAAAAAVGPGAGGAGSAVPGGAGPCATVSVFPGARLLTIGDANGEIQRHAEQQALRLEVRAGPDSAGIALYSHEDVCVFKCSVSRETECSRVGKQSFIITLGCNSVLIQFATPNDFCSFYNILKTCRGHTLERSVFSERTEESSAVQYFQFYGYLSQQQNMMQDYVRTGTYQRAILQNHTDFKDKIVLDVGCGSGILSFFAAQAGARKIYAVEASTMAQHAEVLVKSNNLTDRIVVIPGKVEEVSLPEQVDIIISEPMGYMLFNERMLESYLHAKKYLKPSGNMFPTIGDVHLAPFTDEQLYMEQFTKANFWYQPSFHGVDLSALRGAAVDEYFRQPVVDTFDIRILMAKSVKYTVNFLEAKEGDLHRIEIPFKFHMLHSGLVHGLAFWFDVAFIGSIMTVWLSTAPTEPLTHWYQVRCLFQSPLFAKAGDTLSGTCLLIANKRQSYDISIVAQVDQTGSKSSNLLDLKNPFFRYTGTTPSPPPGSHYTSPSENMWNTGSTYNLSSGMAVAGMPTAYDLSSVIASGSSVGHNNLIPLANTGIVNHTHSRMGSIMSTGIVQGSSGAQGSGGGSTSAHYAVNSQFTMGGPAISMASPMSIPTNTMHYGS
measurement-notes: HotSpot radioisotope-based filter assay, PRMT4
Assay type: biochemical
test-context: Figure 2; from IC50 values of ref 31
Return type: number; implicit unit fold.

Some solved cases for reference:
> print(dat)
                                   compound  recorded.result
1  COC(=O)c1cc(O)c2cc(NC(=O)NCCCCCNC(=N)NC[C@H]3O[C@@H](n4cnc5c(N)ncnc54)[C@H](O)[C@@H]3O)ccc2c1 [1c]                2
2  COC(=O)c1cc(O)c2cc(NC(=O)NCCCCNC(=N)NCCC[C@H]3O[C@@H](n4cnc5c(N)ncnc54)[C@H](O)[C@@H]3O)ccc2c1 [1g]            0.002
3  COC(=O)c1cc(O)c2cc(NC(=O)NCCCCCCCNC(=N)NC[C@H]3O[C@@H](n4cnc5c(N)ncnc54)[C@H](O)[C@@H]3O)ccc2c1 [1e]             0.28

Turning now to a further record.
Problem: For COC(=O)c1cc(O)c2cc(NC(=O)NCCCCNC(=N)NCC[C@H]3O[C@@H](n4cnc5c(N)ncnc54)[C@H](O)[C@@H]3O)ccc2c1 [1f] , what is its reported selectivity index for PRMT7 over PRMT4?
Solution: 0.04
